Molecular target: T1, human α4β7 integrin on cells (human, UniProt P13612 34-1032; P26010 20-798)
T1 construct: whole, on cells; also called α4β7 cell (Hu); RPMI8866 cells
Assay: RPMI8866 cell adhesion to MAdCAM-1
Bridge positions count the residues as written; N and C are the ends. Square brackets hold non-standard residues; d marks the D form. Ends that are not written are not given here. Phe(4-CF3) = N[C@@H](Cc1ccc(C(F)(F)F)cc1)C(=O)O; NMeR = CN[C@@H](CCCNC(=N)N)C(=O)O; Pen = CC(C)(S)[C@H](N)C(=O)O
Reported IC50 is given for each of the following binders.

Answered examples (2):
[
  {
    "binder": "C[NMeR]SDTL[Pen]W-NH2 (disulfide 1-7; not fully specified (N-terminus); printed as PEG13 NH2 C N-Me-R S D T L Pen W NH2, disulfide C-Pen; also: N-terminal PEG13 linker, number of subunits not shown, N-terminal linker printed without dimer brackets) [SEQ ID NO: 20]",
    "IC50": "> 50 nM"
  },
  {
    "binder": "Ac-[Pen][NMeR]SDTL[Pen][Phe(4-CF3)][dE][dK]-NH2 (disulfide 1-7; not fully specified (residue 10); printed as (Ac Pen N-Me-R S D T L Pen F(4CF3) e k NH2)2 DIG, disulfide Pen-Pen; also: homodimer: two subunits joined by DIG linker) [SEQ ID NO: 122]",
    "IC50": "> 50 nM"
  }
]

Turning to the following binder.
IC50 in this record for Ac-[Pen][NMeR]SDTL[Pen]WE-OH (disulfide 1-7; SMILES CC(=O)N[C@@H]1C(=O)N(C)[C@@H](CCCNC(=N)N)C(=O)N[C@@H](CO)C(=O)N[C@@H](CC(=O)O)C(=O)N[C@@H]([C@@H](C)O)C(=O)N[C@@H](CC(C)C)C(=O)N[C@H](C(=O)N[C@@H](Cc2c[nH]c3ccccc23)C(=O)N[C@@H](CCC(=O)O)C(=O)O)C(C)(C)SSC1(C)C) [SEQ ID NO: 128] : > 50 nM
